- procedure_text: Photophysical characterization (UV-Vis absorption, fluorescence and singlet oxygen quantum yields)
- Format: physicochemical
- condition_context: ethanol, room temperature, 650 nm
observed_property: Molar Extinction Coefficient QI ε650 (L·M^−1·cm^−1)

* O=C(O)c1ccc(-c2c3nc(c(-c4ccccc4)c4ccc([nH]4)c(-c4ccccc4)c4nc(c(-c5ccccc5)c5ccc2[nH]5)CC4)C=C3)cc1 [TPC] | 12000

----------
- procedure_text: Shake flask octanol/PBS pH 7.4 distribution coefficient
- Format: physicochemical
- condition_context: expressed as log, mean ± S.D., n = 6, read-out: Shake Flask Method Distribution Coefficient, D (log D pH7.4)
observed_property: logD

* O=C(O)c1ccc(-c2c3nc(c(-c4ccccc4)c4ccc([nH]4)c(-c4ccccc4)c4nc(c(-c5ccccc5)c5ccc2[nH]5)CC4)C=C3)cc1 | 2.61
